- testedOn: D(3) dopamine receptor (Homo sapiens, UniProt P35462)
- Sequence (P35462 whole entry): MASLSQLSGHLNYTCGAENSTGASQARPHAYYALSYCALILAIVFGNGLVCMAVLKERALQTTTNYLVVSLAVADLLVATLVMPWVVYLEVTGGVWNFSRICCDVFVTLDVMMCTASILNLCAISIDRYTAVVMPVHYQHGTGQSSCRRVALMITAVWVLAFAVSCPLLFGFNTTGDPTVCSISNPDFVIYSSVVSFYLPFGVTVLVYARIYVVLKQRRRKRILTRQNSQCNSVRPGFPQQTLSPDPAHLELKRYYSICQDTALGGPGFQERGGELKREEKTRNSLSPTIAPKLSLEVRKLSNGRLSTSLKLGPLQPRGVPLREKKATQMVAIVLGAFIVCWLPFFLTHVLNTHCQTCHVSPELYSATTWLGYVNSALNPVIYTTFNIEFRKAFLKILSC
- assayName: In vitro binding affinity towards human recombinant Dopamine receptor D3 receptor expressed in CHO-K1 cells was determined using [3H]spiperone as radioligand
valueKind: Ki (nM)

> print(dat)
                                        smi                                  testedon  unitspec  measurednumber
1  c1ccc(N2CCN(CC[C@H]3CC[C@H](c4c[nH]c5ccccc54)CC3)CC2)nc1  D(3) dopamine receptor (Homo sapiens, UniProt P35462)        nM              29

* * *

- testedOn: UniProt:P61169
- Sequence (P61169 whole entry): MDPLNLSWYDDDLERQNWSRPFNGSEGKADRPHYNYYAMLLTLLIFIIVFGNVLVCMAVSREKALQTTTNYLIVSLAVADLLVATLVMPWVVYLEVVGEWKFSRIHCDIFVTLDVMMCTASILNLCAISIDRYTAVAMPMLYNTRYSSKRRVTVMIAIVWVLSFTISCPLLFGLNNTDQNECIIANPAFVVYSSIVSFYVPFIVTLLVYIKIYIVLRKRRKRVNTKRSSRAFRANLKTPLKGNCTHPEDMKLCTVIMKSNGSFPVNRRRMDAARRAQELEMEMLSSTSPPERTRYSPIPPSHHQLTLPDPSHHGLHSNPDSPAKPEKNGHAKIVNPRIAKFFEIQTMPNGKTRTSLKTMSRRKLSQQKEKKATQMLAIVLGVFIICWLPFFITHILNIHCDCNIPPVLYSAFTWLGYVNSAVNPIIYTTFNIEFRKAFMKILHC
- assayName: Binding affinity was determined in vitro on rat striatum using [3H]N-propylnorapomorphine against Dopamine receptor D2
- Type: tissue-based
valueKind: Ki (nM)

> print(dat)
                                        smi  valuekind  measurednumber
1  c1ccc(N2CCN(CC[C@H]3CC[C@H](c4c[nH]c5ccccc54)CC3)CC2)nc1         Ki             2.6

Cited source for all entries: ChEMBL document CHEMBL1130352
